The origin of these recorded values is PubChem BioAssay AID1963846.

Test system: 454973-116-R2-J3-PDC complex spheroid viability
Experiment: Anticancer human tumor 454973-116-R2-J3-PDC patient-derived pancreatic carcinoma cell line growth inhibition [POLQ]
Conditions: second compound 3.16 µM; first compound 0.316 µM; stronger effect = lower value
MEASURED_METRIC: viability, T/C (%)

{"MOLECULE": "O=C(c1cc(Cc2n[nH]c(=O)c3ccccc23)ccc1F)N1CCN(C(=O)C2CC2)CC1 + Cc1cccc(N(C)C(=O)C2C(O)CCN2c2nc(C)cc(C(F)(F)F)c2C#N)c1", "MEASURED_METRIC": "viability, T/C", "MEASUREMENT": 104}
{"MOLECULE": "CCCS(=O)(=O)Nc1ccc(F)c(C(=O)c2c[nH]c3ncc(-c4ccc(Cl)cc4)cc23)c1F + Cc1cccc(N(C)C(=O)C2C(O)CCN2c2nc(C)cc(C(F)(F)F)c2C#N)c1", "MEASURED_METRIC": "viability, T/C", "MEASUREMENT": 104}
{"MOLECULE": "O=C(Nc1ccc(O)c(NS(=O)(=O)c2ccc(F)cc2)c1)c1ccc(-c2ccccc2)cc1 + Cc1cccc(N(C)C(=O)C2C(O)CCN2c2nc(C)cc(C(F)(F)F)c2C#N)c1", "MEASURED_METRIC": "viability, T/C", "MEASUREMENT": 98.4}
{"MOLECULE": "CCCS(=O)(=O)Nc1ccc(F)c(C(=O)c2c[nH]c3ncc(-c4ccc(Cl)cc4)cc23)c1F + COC1C(OC(N)=O)C(O)C(Oc2ccc3c(O)c(NC(=O)c4ccc(O)c(CC=C(C)C)c4)c(=O)oc3c2C)OC1(C)C", "MEASURED_METRIC": "viability, T/C", "MEASUREMENT": 103}
{"MOLECULE": "CC(C)n1c(=O)n(C)c2cnc3cc(F)c(-c4ccc(OCCCN5CCCCC5)nc4)cc3c21 + COC1C(OC(N)=O)C(O)C(Oc2ccc3c(O)c(NC(=O)c4ccc(O)c(CC=C(C)C)c4)c(=O)oc3c2C)OC1(C)C", "MEASURED_METRIC": "viability, T/C", "MEASUREMENT": 112}

---

Test system: 454973-116-R2-J3-PDC complex spheroid viability
Experiment: Anticancer human tumor 454973-116-R2-J3-PDC cell line growth inhibition [POLQ];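 note: spheroids exposed to drugs for seven days before measurement; percent viability relative to DMSO vehicle control wells taken as 100%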
Conditions: second compound 0.1 µM; first compound 0.1 µM; stronger effect = lower value

{"COMPOUND": "COc1cc2cc(C(=O)CCC(=O)O)sc2cc1OC + COC1C(OC(N)=O)C(O)C(Oc2ccc3c(O)c(NC(=O)c4ccc(O)c(CC=C(C)C)c4)c(=O)oc3c2C)OC1(C)C", "viability, T/C": "115%"}
{"COMPOUND": "COc1cc(C2c3cc4c(cc3C(OC3OC5COC(C)OC5C(O)C3O)C3COC(=O)C23)OCO4)cc(OC)c1O (stereo not drawn) + Cc1cccc(N(C)C(=O)C2C(O)CCN2c2nc(C)cc(C(F)(F)F)c2C#N)c1", "viability, T/C": "99.5%"}
{"COMPOUND": "O=c1[nH]cc(F)c(=O)[nH]1 + Nc1ccc(C#CCN(C(=O)Cc2ncc(C(F)(F)F)cc2C(F)(F)F)c2ccc(F)cc2)nn1", "viability, T/C": "103%"}

---

Test system: 454973-116-R2-J3-PDC complex spheroid viability
Experiment: Anticancer human tumor 454973-116-R2-J3-PDC cell line growth inhibition [POLQ]; active = viability on the fitted dose curve at most 10% of control; inactive = the rest;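 note: spheroids exposed to drugs for seven days before measurement; percent viability relative to DMSO vehicle control wells taken as 100%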
Details: second compound 0.1 µM; first compound 0.0316 µM
Outcome codes: active, inactive

{"COMPOUND": "CC(C)n1c(=O)n(C)c2cnc3cc(F)c(-c4ccc(OCCCN5CCCCC5)nc4)cc3c21 + Nc1ccc(C#CCN(C(=O)Cc2ncc(C(F)(F)F)cc2C(F)(F)F)c2ccc(F)cc2)nn1", "LABEL_CLASS": "inactive"}
{"COMPOUND": "O=c1[nH]cc(F)c(=O)[nH]1 + Nc1ccc(C#CCN(C(=O)Cc2ncc(C(F)(F)F)cc2C(F)(F)F)c2ccc(F)cc2)nn1", "LABEL_CLASS": "inactive"}
{"COMPOUND": "O=C(Nc1ccc(O)c(NS(=O)(=O)c2ccc(F)cc2)c1)c1ccc(-c2ccccc2)cc1 + Cc1cccc(N(C)C(=O)C2C(O)CCN2c2nc(C)cc(C(F)(F)F)c2C#N)c1", "LABEL_CLASS": "inactive"}
{"COMPOUND": "COc1cccc(OCCCN)c1-c1cc(Nc2cnc(C#N)cn2)n[nH]1 + Cc1cccc(N(C)C(=O)C2C(O)CCN2c2nc(C)cc(C(F)(F)F)c2C#N)c1", "LABEL_CLASS": "inactive"}
{"COMPOUND": "COc1cc2cc(C(=O)CCC(=O)O)sc2cc1OC + COC1C(OC(N)=O)C(O)C(Oc2ccc3c(O)c(NC(=O)c4ccc(O)c(CC=C(C)C)c4)c(=O)oc3c2C)OC1(C)C", "LABEL_CLASS": "inactive"}
{"COMPOUND": "Nc1ccn(C2OC(CO)C(O)C2(F)F)c(=O)n1 (stereo unspecified) + Nc1ccc(C#CCN(C(=O)Cc2ncc(C(F)(F)F)cc2C(F)(F)F)c2ccc(F)cc2)nn1", "LABEL_CLASS": "active"}

---

Test system: 454973-116-R2-J3-PDC complex spheroid viability
Test: Anticancer human tumor 454973-116-R2-J3-PDC cell line growth inhibition [POLQ];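 note: spheroids exposed to drugs for seven days before measurement; percent viability relative to DMSO vehicle control wells taken as 100%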
Settings: second compound 3.16 µM; first compound 0.1 µM; stronger effect = lower value
Reported values of viability, T/C for individual entries
MEASURED_METRIC: viability, T/C

{"COMPOUND": "O=C(c1cc(Cc2n[nH]c(=O)c3ccccc23)ccc1F)N1CCN(C(=O)C2CC2)CC1 + Cc1cccc(N(C)C(=O)C2C(O)CCN2c2nc(C)cc(C(F)(F)F)c2C#N)c1", "MEASURED_METRIC": "viability, T/C", "MEASUREMENT": "98.5%"}
{"COMPOUND": "C#Cc1c(F)ccc2cc(O)cc(-c3ncc4c(N5CC6CCC(C5)N6)nc(OCC56CCCN5CC(F)C6)nc4c3F)c12 (stereo not given) + COC1C(OC(N)=O)C(O)C(Oc2ccc3c(O)c(NC(=O)c4ccc(O)c(CC=C(C)C)c4)c(=O)oc3c2C)OC1(C)C", "MEASURED_METRIC": "viability, T/C", "MEASUREMENT": "53.4%"}
{"COMPOUND": "COc1cccc2c1C(=O)c1c(O)c3c(c(O)c1C2=O)CC(O)(C(=O)CO)CC3OC1CC(N)C(O)C(C)O1 (stereo not given) + Cc1cccc(N(C)C(=O)C2C(O)CCN2c2nc(C)cc(C(F)(F)F)c2C#N)c1", "MEASURED_METRIC": "viability, T/C", "MEASUREMENT": "38.4%"}
{"COMPOUND": "C#Cc1c(F)ccc2cc(O)cc(-c3ncc4c(N5CC6CCC(C5)N6)nc(OCC56CCCN5CC(F)C6)nc4c3F)c12 (stereo not given) + Nc1ccc(C#CCN(C(=O)Cc2ncc(C(F)(F)F)cc2C(F)(F)F)c2ccc(F)cc2)nn1", "MEASURED_METRIC": "viability, T/C", "MEASUREMENT": "35.4%"}
{"COMPOUND": "CCc1cc2c(N3CCc4c(cc(Cn5ccnc5)cc4-c4cn(C)nc4C(F)(F)F)C3=O)cc(C)nc2c(OC)n1 + Cc1cccc(N(C)C(=O)C2C(O)CCN2c2nc(C)cc(C(F)(F)F)c2C#N)c1", "MEASURED_METRIC": "viability, T/C", "MEASUREMENT": "89.3%"}

---

Test system: 454973-116-R2-J3-PDC complex spheroid viability
Experiment: Anticancer human tumor 454973-116-R2-J3-PDC cell line growth inhibition [POLQ]; active means viability on the fitted dose curve at most 10% of control; inactive means the rest;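 note: spheroids exposed to drugs for seven days before measurement; percent viability relative to DMSO vehicle control wells taken as 100%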
Conditions: second compound 3.16 µM; first compound 0.316 µM
Outcome codes: active, inactive

{"COMPOUND": "CC1COCCN1c1cc(-c2ccnn2C)c2ccnc(-c3ccn[nH]3)c2n1 (stereo unspecified) + COC1C(OC(N)=O)C(O)C(Oc2ccc3c(O)c(NC(=O)c4ccc(O)c(CC=C(C)C)c4)c(=O)oc3c2C)OC1(C)C", "TARGET_OR_SYSTEM": "454973-116-R2-J3-PDC complex spheroid viability", "LABEL_CLASS": "inactive"}
{"COMPOUND": "Nc1ccn(C2OC(CO)C(O)C2(F)F)c(=O)n1 (stereo unspecified) + COC1C(OC(N)=O)C(O)C(Oc2ccc3c(O)c(NC(=O)c4ccc(O)c(CC=C(C)C)c4)c(=O)oc3c2C)OC1(C)C", "TARGET_OR_SYSTEM": "454973-116-R2-J3-PDC complex spheroid viability", "LABEL_CLASS": "inactive"}
{"COMPOUND": "CC(C)n1c(=O)n(C)c2cnc3cc(F)c(-c4ccc(OCCCN5CCCCC5)nc4)cc3c21 + Nc1ccc(C#CCN(C(=O)Cc2ncc(C(F)(F)F)cc2C(F)(F)F)c2ccc(F)cc2)nn1", "TARGET_OR_SYSTEM": "454973-116-R2-J3-PDC complex spheroid viability", "LABEL_CLASS": "inactive"}
{"COMPOUND": "O=C(c1cc(Cc2n[nH]c(=O)c3ccccc23)ccc1F)N1CCN(C(=O)C2CC2)CC1 + Nc1ccc(C#CCN(C(=O)Cc2ncc(C(F)(F)F)cc2C(F)(F)F)c2ccc(F)cc2)nn1", "TARGET_OR_SYSTEM": "454973-116-R2-J3-PDC complex spheroid viability", "LABEL_CLASS": "inactive"}
{"COMPOUND": "CC1COCCN1c1cc(C2(S(C)(=N)=O)CC2)nc(-c2ccnc3[nH]ccc23)n1 (stereo unspecified) + Nc1ccc(C#CCN(C(=O)Cc2ncc(C(F)(F)F)cc2C(F)(F)F)c2ccc(F)cc2)nn1", "TARGET_OR_SYSTEM": "454973-116-R2-J3-PDC complex spheroid viability", "LABEL_CLASS": "inactive"}
{"COMPOUND": "CCc1c2c(nc3ccc(O)cc13)-c1cc3c(c(=O)n1C2)COC(=O)[C@]3(O)CC + COC1C(OC(N)=O)C(O)C(Oc2ccc3c(O)c(NC(=O)c4ccc(O)c(CC=C(C)C)c4)c(=O)oc3c2C)OC1(C)C", "TARGET_OR_SYSTEM": "454973-116-R2-J3-PDC complex spheroid viability", "LABEL_CLASS": "active"}
{"COMPOUND": "CC1COCCN1c1cc(C2(S(C)(=N)=O)CC2)nc(-c2ccnc3[nH]ccc23)n1 (stereo unspecified) + COC1C(OC(N)=O)C(O)C(Oc2ccc3c(O)c(NC(=O)c4ccc(O)c(CC=C(C)C)c4)c(=O)oc3c2C)OC1(C)C", "TARGET_OR_SYSTEM": "454973-116-R2-J3-PDC complex spheroid viability", "LABEL_CLASS": "inactive"}
{"COMPOUND": "COc1ccc([C@@H](O)c2cc(-c3ncnc4cc(N5CCOCC5)ccc34)c(F)cc2Cl)nn1 + Cc1cccc(N(C)C(=O)C2C(O)CCN2c2nc(C)cc(C(F)(F)F)c2C#N)c1", "TARGET_OR_SYSTEM": "454973-116-R2-J3-PDC complex spheroid viability", "LABEL_CLASS": "inactive"}
{"COMPOUND": "COc1cccc(OCCCN)c1-c1cc(Nc2cnc(C#N)cn2)n[nH]1 + Cc1cccc(N(C)C(=O)C2C(O)CCN2c2nc(C)cc(C(F)(F)F)c2C#N)c1", "TARGET_OR_SYSTEM": "454973-116-R2-J3-PDC complex spheroid viability", "LABEL_CLASS": "active"}
{"COMPOUND": "CCc1c2c(nc3ccc(O)cc13)-c1cc3c(c(=O)n1C2)COC(=O)[C@]3(O)CC + Cc1cccc(N(C)C(=O)C2C(O)CCN2c2nc(C)cc(C(F)(F)F)c2C#N)c1", "TARGET_OR_SYSTEM": "454973-116-R2-J3-PDC complex spheroid viability", "LABEL_CLASS": "active"}
{"COMPOUND": "CC1COCCN1c1cc(C2(O)CC3CCC(C2)O3)c2cnn(-c3ccn[nH]3)c2n1 (stereo unspecified) + Cc1cccc(N(C)C(=O)C2C(O)CCN2c2nc(C)cc(C(F)(F)F)c2C#N)c1", "TARGET_OR_SYSTEM": "454973-116-R2-J3-PDC complex spheroid viability", "LABEL_CLASS": "inactive"}
